Molecular target: T1, CaBdf1 BD2 (GST-tagged, wild-type) (Candida albicans (strain SC5314 / ATCC …, UniProt Q5A4W8))
T1 chain: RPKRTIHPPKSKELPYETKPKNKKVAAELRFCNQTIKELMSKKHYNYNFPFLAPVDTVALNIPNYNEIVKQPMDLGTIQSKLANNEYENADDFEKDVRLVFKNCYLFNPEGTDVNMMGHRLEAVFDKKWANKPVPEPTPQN
Experiment: histone peptide array (Active Motif MODified), 1 uM GST-tagged bromodomain, anti-GST detection, normalized mean intensity
Square brackets hold non-standard residues; d marks the D form. Ends that are not written are not given here. Arg(Me2a) = CN(C)C(=N)NCCC[C@H](N)C(=O)O; pT = C[C@@H](OP(=O)(O)O)[C@H](N)C(=O)O; Lys(Me) = CNCCCC[C@H](N)C(=O)O; Me2a = not defined here; me2a = not defined here
Please assign rule not met whenever binding score is at or above 0.004, and rule met whenever it is below.

**Query** is_below(binding score, 0.004) for ARTKQTARKSTGGKAPRKQ (A Rme2s pT Kme2 Q T A R K S T G G K A P R K Q) ?
**Result** rule met

**Query** is_below(binding score, 0.004) for `ARTKQTA[Arg(Me2a)][Lys(Me)]S[pT]GGKAPRKQ` ?
**Result** rule met

**Query** is_below(binding score, 0.004) for `AR[pT]K(Ac)QTARKSTGGKAPRKQ` ?
**Result** rule met

**Query** is_below(binding score, 0.004) for ARTKQTARKSTGGKAPRKQ (A R T K Q T A Rme2a Kme2 pS pT G G K A P R K Q) ?
**Result** rule not met

**Query** is_below(binding score, 0.004) for AR(Me2a)[pT]K(Me)QTARKSTGGKAPRKQ (reading uncertain) ?
**Result** rule met

**Query** is_below(binding score, 0.004) for ARTKQTARKSTGGKAPRKQ (A Rme2s T Kme2 Q T A Rme2a Kme2 S T G G K A P R K Q) ?
**Result** rule not met

**Query** is_below(binding score, 0.004) for ARTKQTARKSTGGKAPRKQ (A R T Kac Q T A Rme2a Kme3 S T G G K A P R K Q) ?
**Result** rule not met

**Query** is_below(binding score, 0.004) for AR(Me2a)TK(Me)QTAR(Me2s)K(Ac)STGGKAPRKQ (reading uncertain) ?
**Result** rule met

**Query** is_below(binding score, 0.004) for AR(me2a)TK(Ac)QTAR(me2a)K(Me)STGGKAPRKQ (reading uncertain) ?
**Result** rule not met
